System: CCRF-CEM
Assay Summary: The mitochondrial toxicity was measured on human T-lymphoid CEM cells.
Assay type: functional
Answer each item with its documented ID50.

// solved cases for ID50 follow
INSERT INTO measurements (smiles_notation, result) VALUES
  ('O=c1[nH]c(=O)n([C@@H]2CO[C@H](CO)O2)cc1/C=C/Cl', '> 200 µM'),
  ('O=c1[nH]c(=O)n([C@H]2CO[C@H](CO)O2)cc1/C=C/Br', '> 25 µM'),
  ('O=c1[nH]c(=O)n([C@H]2CO[C@H](CO)O2)cc1/C=C/Cl', '> 25 µM'),
  ('O=c1[nH]c(=O)n([C@@H]2CO[C@H](CO)O2)cc1/C=C/I', '> 200 µM'),
  ('O=c1[nH]c(=O)n([C@@H]2CO[C@H](CO)O2)cc1/C=C/Br', '> 200 µM'),
  ('Nc1nc(O)c2ncn(CCC(CO)CO)c2n1', '> 200 µM');

Next molecule, ID50 to be filled in.
Reported ID50 ( O=c1[nH]c(=O)n([C@H]2C[C@H](O)[C@@H](CO)O2)cc1/C=C/Br ) = > 100 µM
